Please respond with reported IC50 for every item in the list.
# tested-system: electric eel acetylcholinesterase (eeAChE) (Electrophorus electricus, UniProt O42275)
# Sequence (O42275 24-633): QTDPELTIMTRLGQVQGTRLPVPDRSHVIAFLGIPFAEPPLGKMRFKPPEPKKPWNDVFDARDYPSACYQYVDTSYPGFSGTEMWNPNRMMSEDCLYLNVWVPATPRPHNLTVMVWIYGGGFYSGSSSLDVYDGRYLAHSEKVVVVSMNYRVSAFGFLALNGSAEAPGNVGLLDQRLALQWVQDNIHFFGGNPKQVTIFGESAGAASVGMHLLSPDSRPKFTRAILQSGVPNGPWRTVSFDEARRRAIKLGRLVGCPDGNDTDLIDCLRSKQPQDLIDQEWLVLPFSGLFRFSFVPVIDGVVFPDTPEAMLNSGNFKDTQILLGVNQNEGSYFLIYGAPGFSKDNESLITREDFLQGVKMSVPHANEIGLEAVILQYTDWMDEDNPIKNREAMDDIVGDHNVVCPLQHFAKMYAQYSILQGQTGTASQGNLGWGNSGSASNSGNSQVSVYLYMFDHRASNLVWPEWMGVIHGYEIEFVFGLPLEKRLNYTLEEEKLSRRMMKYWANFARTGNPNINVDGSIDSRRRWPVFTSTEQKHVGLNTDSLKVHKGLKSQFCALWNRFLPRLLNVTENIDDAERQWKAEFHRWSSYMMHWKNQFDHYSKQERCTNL
# measurement-protocol: Acetylcholinesterase inhibition assay
# Format: biochemical
# experimental-setup: IC50 (μM) ± SEM eeAChE, mean ± SEM; n = 3
One number for each entry, in µM.

C[C@]12CCC(NC(=S)Nc3ccc(S(N)(=O)=O)cc3)CC1=CC[C@@H]1[C@@H]2CC[C@]2(C)C(C(=O)CN3c4ccccc4Sc4ccccc43)CC[C@@H]12 (stereo partly drawn) :: 0.094

Okay, here is my list. What is IC50 for each of these?
1. CC(=O)C1CC[C@H]2[C@@H]3CC=C4CC(N)CC[C@]4(C)[C@H]3CC[C@]12C (stereo partly drawn)
2. C[C@]12CCC(NC(=S)Nc3ccc(S(N)(=O)=O)cc3)CC1=CC[C@@H]1[C@@H]2CC[C@]2(C)C(C(=O)CNCCc3ccccc3)CC[C@@H]12 (stereo partly drawn)
3. CC(=O)C1CC[C@H]2[C@@H]3CC=C4CC(NC(=S)Nc5ccc(S(N)(=O)=O)cc5)CC[C@]4(C)[C@H]3CC[C@]12C (stereo partly drawn)
4. C[C@]12CCC(NC(=S)Nc3ccc(S(N)(=O)=O)cc3)CC1=CC[C@@H]1[C@@H]2CC[C@]2(C)C(C(=O)CNCc3ccccc3)CC[C@@H]12 (stereo partly drawn)
5. C[C@]12CCC(NC(=S)Nc3ccc(S(N)(=O)=O)cc3)CC1=CC[C@@H]1[C@@H]2CC[C@]2(C)C(C(=O)CNc3c4c(cc5ccccc35)CCCC4)CC[C@@H]12 (stereo partly drawn)

[67.7, 1.61, 13, 0.98, 0.32]
